Biological target: KRAS G13C (Homo sapiens (Human), UniProt P01116+P62937, G13C)
Sequence (P01116 other isoform, or with tags, fused parts or gaps G13C): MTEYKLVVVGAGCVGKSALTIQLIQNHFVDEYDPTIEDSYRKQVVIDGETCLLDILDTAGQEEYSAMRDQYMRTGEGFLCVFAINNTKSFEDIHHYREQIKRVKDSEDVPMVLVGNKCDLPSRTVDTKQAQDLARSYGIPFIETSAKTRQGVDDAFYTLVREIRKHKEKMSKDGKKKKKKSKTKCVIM
Sequence (P62937 whole entry): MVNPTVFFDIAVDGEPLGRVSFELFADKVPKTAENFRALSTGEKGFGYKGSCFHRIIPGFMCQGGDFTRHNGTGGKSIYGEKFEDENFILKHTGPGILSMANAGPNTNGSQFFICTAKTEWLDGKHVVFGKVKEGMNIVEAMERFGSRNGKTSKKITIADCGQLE
Assay: Ras-Raf disruption/FRET/MOA assay, KRAS G13C
Assay type: biochemical
Details: read-out: KRAS G13C FRET IC50
Result Type: IC50

Query: Provide IC50 value for the following compound: CCn1c(-c2cnccc2COC)c2c3cc(ccc31)-c1cc(O)cc(c1)C[C@H](NC(=O)[C@H](C(C)C)N(C)C(=O)C1CN(C(=O)[C@H]3CN3)C1)C(=O)N1CCC[C@H](N1)C(=O)OCC(C)(C)C2
Result: 100 to 1000 nM

Query: Provide IC50 value for the following compound: CCn1c(-c2cnccc2COC)c2c3cc(ccc31)-c1cc(O)cc(c1)C[C@H](NC(=O)[C@@H](CN(C)C(=O)[C@@H]1CN1)C(C)C)C(=O)N1CCC[C@H](N1)C(=O)OCC(C)(C)C2
Result: > 10000 nM

Query: Provide IC50 value for the following compound: CCn1c(-c2cnccc2COC)c2c3cc(ccc31)-c1cccc(c1)C[C@H](NC(=O)[C@H](C(C)C)N(C)C(=O)CCN=C=Nc1ccc(N3CCOCC3)cc1)C(=O)N1CCC[C@H](N1)C(=O)OCC(C)(C)C2
Result: 1000 to 10000 nM

Query: Provide IC50 value for the following compound: CCn1c(-c2cnccc2COC)c2c3cc(ccc31)-c1cc(O)cc(c1)C[C@H](NC(=O)[C@H](C(C)C)N(C)C(=O)[C@H]1CCN(C(=O)[C@@H]3CN3)C1)C(=O)N1CCC[C@H](N1)C(=O)OCC(C)(C)C2
Result: 100 to 1000 nM

Query: Provide IC50 value for the following compound: CCn1c(-c2cnccc2COC)c2c3cc(ccc31)-c1cc(O)cc(c1)C[C@H](NC(=O)[C@@H](CCNC(=O)NCCCl)C(C)C)C(=O)N1CCC[C@H](N1)C(=O)OCC(C)(C)C2
Result: > 10000 nM

Query: Provide IC50 value for the following compound: CCn1c(-c2cccnc2[C@H](C)OC)c2c3cc(ccc31)-c1cc(O)cc(c1)C[C@H](NC(=O)[C@H](C(C)C)N1CCC3(CC(C(=O)[C@H]4CN4)C3)C1=O)C(=O)N1CCC[C@H](N1)C(=O)OCC(C)(C)C2 (stereo partly shown)
Result: 10 to 100 nM

Query: Provide IC50 value for the following compound: CCn1c(-c2cnccc2COC)c2c3cc(ccc31)-c1cc(O)cc(c1)C[C@H](NC(=O)[C@H](C(C)C)N(C)C(=O)c1ccc(NC(=O)[C@@H]3CN3)cn1)C(=O)N1CCC[C@H](N1)C(=O)OCC(C)(C)C2
Result: 100 to 1000 nM

---

Molecular target: KRAS WT (Homo sapiens (Human), UniProt P01116+P62937)
Sequence (P01116 other isoform, or with tags, fused parts or gaps): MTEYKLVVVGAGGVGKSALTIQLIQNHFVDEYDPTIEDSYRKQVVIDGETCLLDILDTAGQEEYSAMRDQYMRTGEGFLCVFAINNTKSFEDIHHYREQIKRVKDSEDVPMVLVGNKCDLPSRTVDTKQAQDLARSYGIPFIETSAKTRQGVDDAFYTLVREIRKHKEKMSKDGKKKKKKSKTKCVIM
Sequence (P62937 whole entry): as the sequence (P62937 whole entry) above
Assay: Ras-Raf disruption/FRET/MOA assay, KRAS WT
Format: biochemical
Details: read-out: KRAS WT FRET IC50
pIC50: −log10 of the molar value.
Exercise: for every item that follows, state its recorded pIC50.

Query: Provide pIC50 value for the following compound: CCn1c(-c2cnccc2COC)c2c3cc(ccc31)-c1cc(O)cc(c1)C[C@H](NC(=O)[C@H](C(C)C)N(C)C(=O)[C@H]1CCN(C(=O)[C@@H]3CO3)C1)C(=O)N1CCC[C@H](N1)C(=O)OCC(C)(C)C2 [Example 31]
Result: 5.00 to 6.00

Query: Provide pIC50 value for the following compound: CCn1c(-c2cnccc2COC)c2c3cc(ccc31)-c1cccc(c1)C[C@H](NC(=O)[C@H](C(C)C)N1CC[C@@H](CN=C=NCCOC)C1)C(=O)N1CCC[C@H](N1)C(=O)OCC(C)(C)C2 [Example 80]
Result: 5.00 to 6.00

Query: Provide pIC50 value for the following compound: CCn1c(-c2cnccc2COC)c2c3cc(ccc31)-c1cc(O)cc(c1)C[C@H](NC(=O)[C@H](C(C)C)N(C)C(=O)N1CCCN(C(=O)[C@H]3CN3)CC1)C(=O)N1CCC[C@H](N1)C(=O)OCC(C)(C)C2 [Example 44]
Result: 7.00 to 8.00

---

Exercise: for every item that follows, state its recorded IC50.
Molecular target: NRAS Q61R binding to BRAF RBD (Homo sapiens (Human), UniProt P01111+P62937, Q61R)
Sequence (P01111 whole entry Q61R): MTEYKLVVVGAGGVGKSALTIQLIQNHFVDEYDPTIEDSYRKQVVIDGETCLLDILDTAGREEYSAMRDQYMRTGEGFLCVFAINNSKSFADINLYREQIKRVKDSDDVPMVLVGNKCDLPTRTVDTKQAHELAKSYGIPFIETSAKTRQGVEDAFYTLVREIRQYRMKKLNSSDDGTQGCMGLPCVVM
Sequence (P62937 whole entry): as the sequence (P62937 whole entry) above
Test: Ras-Raf disruption/FRET/MOA assay, NRAS Q61R

Query: Provide IC50 value for the following molecule: C=CC(=O)N(C)CCN1CCN(C(=O)N(C)[C@H](C(=O)N[C@H]2CN3CCC=C(C3)c3ccc4c(c3)c(c(-c3cccnc3[C@H](C)OC)n4CC)CC(C)(C)COC(=O)[C@@H]3CCCN(N3)C2=O)C(C)C)C[C@@H]1C
Result: 100 to 1000 nM

Query: Provide IC50 value for the following molecule: CCn1c(-c2cccnc2[C@H](C)OC)c2c3cc(ccc31)-c1cccc(c1)C[C@H](NC(=O)[C@H](C(C)C)N1CC[C@@]3(CCN(C(=O)C#CC(C)(C)N4CCC4)C3)C1=O)C(=O)N1CCC[C@H](N1)C(=O)OCC(C)(C)C2 (atropisomer, axis not shown)
Result: > 10000 nM

Query: Provide IC50 value for the following molecule: CCn1c(-c2cccnc2[C@H](C)OC)c2c3cc(ccc31)-c1csc(n1)C[C@H](NC(=O)[C@H](C(C)C)N(C)C(=O)C1CCN(C(=O)/C=C/CN(C)C)C[C@@H]1C)C(=O)N1CCC[C@H](N1)C(=O)OCC(C)(C)C2 (stereo partly shown)
Result: 100 to 1000 nM

Query: Provide IC50 value for the following molecule: CCn1c(-c2cccnc2[C@H](C)OC)c2c3cc(ccc31)-c1cccc(c1)C[C@H](NC(=O)[C@H](C(C)C)N1CC[C@]3(CCN(C(=O)C#CC(C)(C)N4CCC4)C3)C1=O)C(=O)N1CCC[C@H](N1)C(=O)OCC(C)(C)C2
Result: 1000 to 10000 nM

---

Exercise: for every item that follows, state its recorded pIC50.
Molecular target: KRAS G13C (Homo sapiens (Human), UniProt P01116+P62937, G13C)
Test: Ras-Raf disruption/FRET/MOA assay (BRAF RBD, Cyclophilin A)
Assay type: biochemical
Details: read-out: KRAS G13C FRET IC50
Method: Compound is present in plate wells as a 10-point 3-fold dilution series starting at a final concentration of 30 μM. After incubation at 25° C. for 3 hours, a mixture of Anti-His Eu—W1024 and anti-GST allophycocyanin is then added to assay sample wells at final concentrations of 10 nM and 50 nM, respectively, and the reaction incubated for an additional 1.5 hours. […]
pIC50: −log10 of the molar value.

Query: Provide pIC50 value for the following compound: CCn1c(-c2cccnc2[C@H](C)OC)c2c3cc(ccc31)-c1cc(O)cc(c1)C[C@H](NC(=O)[C@H](C(C)C)N(C)C(=O)[C@H]1CNC[C@@H]1C)C(=O)N1CCC[C@H](N1)C(=O)OCC(C)(C)C2
Result: 7.00 to 8.00

Query: Provide pIC50 value for the following compound: CCn1c(-c2cccnc2COC)c2c3cc(ccc31)-c1cc(O)cc(c1)C[C@H](NC(=O)[C@H](C(C)C)N(C)C(=O)c1ccc(NC(=O)/C=C/CN(C)C)cn1)C(=O)N1CCC[C@H](N1)C(=O)OCC(C)(C)C2
Result: 7.00 to 8.00

---

Biological target: NRAS Q61R binding to BRAF RBD (Homo sapiens (Human), UniProt P01111+P62937, Q61R)
Assay: Ras-Raf disruption/FRET/MOA assay, NRAS Q61R
pIC50: −log10 of the molar value.
Result Type: pIC50

Query: Provide pIC50 value for the following molecule: C=C(C)C(=O)N1CC(N(C)C(=O)N(C)[C@H](C(=O)N[C@H]2Cc3nc(cs3)-c3ccc4c(c3)c(c(-c3cccnc3[C@H](C)OC)n4CC)CC(C)(C)COC(=O)[C@@H]3CCCN(N3)C2=O)C(C)C)C1 [Compound A359]
Result: 5.00 to 6.00

Query: Provide pIC50 value for the following molecule: C=CC(=O)N1CC[C@H](C(=O)C2CC[C@H](C)[C@H]2C(=O)N[C@H]2Cc3cccc(c3)-c3ccc4c(c3)c(c(-c3cccnc3[C@H](C)OC)n4CC)CC(C)(C)COC(=O)[C@@H]3CCCN(N3)C2=O)C1 (some centres unmarked) [Compound A494]
Result: 5.00 to 6.00

---

Exercise: for every item that follows, state its recorded pIC50.
Molecular target: KRAS G12D (Homo sapiens (Human), UniProt P01116+P62937, G12D)
Sequence (P01116 other isoform, or with tags, fused parts or gaps G12D): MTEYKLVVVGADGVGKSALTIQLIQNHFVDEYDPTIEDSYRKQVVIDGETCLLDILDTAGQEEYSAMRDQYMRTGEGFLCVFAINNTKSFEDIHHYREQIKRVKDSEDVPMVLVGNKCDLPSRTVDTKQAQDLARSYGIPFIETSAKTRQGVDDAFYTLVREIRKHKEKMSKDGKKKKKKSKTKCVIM
Sequence (P62937 whole entry): as the sequence (P62937 whole entry) above
Assay: Ras-Raf disruption/FRET/MOA assay (BRAF RBD, Cyclophilin A)
Type: biochemical
Conditions: read-out: KRAS G12D FRET IC50
pIC50: −log10 of the molar value.

Query: Provide pIC50 value for the following molecule: CCn1c(-c2cccnc2[C@H](C)OC)c2c3cc(ccc31)-c1csc(n1)C[C@H](NC(=O)[C@H](C(C)C)N(C)C(=O)N1CC(CN(C)C)C1)C(=O)N1CCC[C@H](N1)C(=O)OCC(C)(C)C2
Result: 6.00 to 7.00

Query: Provide pIC50 value for the following molecule: CCn1c(-c2cccnc2[C@H](C)OC)c2c3cc(ccc31)-c1cc(O)cc(c1)C[C@H](NC(=O)[C@H](C(C)C)N(C)C(=O)[C@H]1C[C@H]1F)C(=O)N1CCC[C@H](N1)C(=O)OCC(C)(C)C2
Result: 6.00 to 7.00

Query: Provide pIC50 value for the following molecule: CCn1c(-c2cccnc2[C@H](C)OC)c2c3cc(ccc31)-c1cc(O)cc(c1)C[C@H](NC(=O)[C@H](C(C)C)N(C)C(=O)C1CC1)C(=O)N1CCC[C@H](N1)C(=O)OCC(C)(C)C2
Result: 6.00 to 7.00
